All values here come from paper PMC9609996.

Please respond with reported inhibition at 20 µM for every item in the list.
Test system: HeLa
test.description: CCK-8 anti-proliferation assay, HeLa
Type: cell-based, human
experimental.parameters: Homo sapiens, 20 μM, mean ± SD, read-out: Inhibition Rate (%) at 20 μM HeLa
A number alone suffices; assume %.

stdin: Name the recorded inhibition at 20 µM of the compound listed here: N#C/C(=C\c1ccc(C2=CC(=O)c3ccccc3C2=O)o1)C(=O)N1CCc2ccccc2C1 [Compound 5b]
stdout: 20.5

stdin: Name the recorded inhibition at 20 µM of the compound listed here: N#C/C(=C\c1ccc(C2=CC(=O)c3ccccc3C2=O)o1)C(=O)NCCN1CCOCC1 [Compound 5c]
stdout: 75.8

stdin: Name the recorded inhibition at 20 µM of the compound listed here: COc1cc(-c2ccc(/C=C(\C#N)C(=O)NCCN3CCOCC3)o2)c(OC)c2ccccc12 [Compound 4c]
stdout: 24.2

stdin: Name the recorded inhibition at 20 µM of the compound listed here: COc1cc(-c2ccc(C(=O)Nc3cccc(N4CCN(C)CC4)c3)o2)c(OC)c2ccccc12 [Compound 8e]
stdout: 40.6

stdin: Name the recorded inhibition at 20 µM of the compound listed here: COc1cc(-c2ccc(C(=O)NC3CCC(F)(F)CC3)o2)c(OC)c2ccccc12 [Compound 8f]
stdout: 30.1

stdin: Name the recorded inhibition at 20 µM of the compound listed here: COc1cc(-c2ccc(C(=O)NC(C)c3ccccc3)o2)c(OC)c2ccccc12 (stereo not shown) [Compound 8b]
stdout: 19.3

stdin: Name the recorded inhibition at 20 µM of the compound listed here: COC(=O)c1ccc(C2=CC(=O)c3ccccc3C2=O)o1 [Compound 6a]
stdout: 26.1
